# Tested on: NCI-H292 lung cancer cells
# protocol.text: FDA drug screening, complete media vs cholesterol-free media with simvastatin (TABLE 2)
# Format: cell-based, human
# assay.context: NCI-H292 cells, FDA drug library screen, complete media
Where a name gives a salt, the structure may show the parent alone.
Binary label based on Complete Media with cut-off 1: below gives 1.0, not below gives 0.0.

Threshold test, Complete Media < 1: CCOC(=O)C1=C(COCCN)NC(C)=C(C(=O)OC)C1c1ccccc1Cl (stereo not shown)
0.0

Threshold test, Complete Media < 1: CC(/C=C1\SC(=S)N(CC(=O)O)C1=O)=C\c1ccccc1
1.0

Threshold test, Complete Media < 1: CC[C@H]1OC(=O)[C@H](C)[C@@H](O[C@H]2C[C@@](C)(OC)[C@@H](O)[C@H](C)O2)[C@H](C)[C@@H](O[C@@H]2O[C@H](C)C[C@H](N(C)C)[C@H]2O)[C@](C)(OC)C[C@@H](C)C(=O)[C@H](C)[C@@H](O)[C@]1(C)O
0.0

Threshold test, Complete Media < 1: [H]/N=C(/N)N/C(=N/[H])NCCc1ccccc1 [Phenformin (hydrochloride)]
0.0

Threshold test, Complete Media < 1: CO/N=C(\C(=O)N[C@@H]1C(=O)N2C(C(=O)[O-])=C(C[N+]3(C)CCCC3)CS[C@H]12)c1csc(N)n1 [Cefepime (Dihydrochloride Monohydrate)]
0.0

Threshold test, Complete Media < 1: Cc1noc(NS(=O)(=O)c2ccc(N)cc2)c1C
0.0

Threshold test, Complete Media < 1: COc1cc(NS(=O)(=O)c2ccc(N)cc2)nc(OC)n1
1.0

Threshold test, Complete Media < 1: OC(c1cc(C(F)(F)F)nc2c(C(F)(F)F)cccc12)C1CCCCN1 (stereo not shown) [Mefloquine (hydrochloride)]
0.0

Threshold test, Complete Media < 1: CC(=O)O[C@]1(C(C)=O)CC[C@H]2[C@@H]3C[C@H](C)C4=CC(=O)CC[C@]4(C)[C@H]3CC[C@@]21C [Medroxyprogesterone acetate]
1.0

Threshold test, Complete Media < 1: N=C1CCCN1Cc1nc(O)nc(O)c1Cl [Tipiracil (hydrochloride)]
0.0

Threshold test, Complete Media < 1: CC(C)(CO)C(O)C(=O)NCCCO (racemic)
0.0

Threshold test, Complete Media < 1: Cc1cccc(Cc2c[nH]cn2)c1C [Detomidine (hydrochloride)]
1.0

Threshold test, Complete Media < 1: N#C/C(=C1/SC[C@@H](c2ccc(Cl)cc2Cl)S1)n1ccnc1
1.0

Threshold test, Complete Media < 1: Cc1ccc(C)c(OCCCC(C)(C)C(=O)O)c1
0.0

Threshold test, Complete Media < 1: c1ccc(-c2ccc(C(c3ccccc3)n3ccnc3)cc2)cc1 (stereo not shown)
1.0

* * *

# Tested on: NCI-H292 lung cancer cells
# protocol.text: FDA drug screening, complete media vs cholesterol-free media without statin (TABLE 1)
# Type: cell-based, human
# assay.context: NCI-H292 cells, cholesterol-free media without statin, FDA drug library screen
Where a name gives a salt, the structure may show the parent alone.
Note to self: values exactly at 0.7 are label 1. So Cholesterol-free at or above 0.7 is label 1, below is label 0.

Entry Nc1nc(/C(=C/CC(=O)O)C(=O)N[C@@H]2C(=O)N3C(C(=O)O)=CCS[C@H]23)cs1 [Ceftibuten (dihydrate)] : is its Cholesterol-free no less than 0.7?
label 0

Entry N[C@@H](CSCCCO)C(=O)O : is its Cholesterol-free no less than 0.7?
label 1

Entry Nc1nc(NC2CC2)c2ncn([C@H]3C=C[C@@H](CO)C3)c2n1 : is its Cholesterol-free no less than 0.7?
label 0

Entry Cc1cn([C@@H]2C[C@@H](O)[C@H](CO)O2)c(=O)[nH]c1=O : is its Cholesterol-free no less than 0.7?
label 1

Entry COc1cc(OC)c(C(=O)CCCN2CCCC2)c(OC)c1 [Buflomedil (hydrochloride)] : is its Cholesterol-free no less than 0.7?
label 0

Entry Cc1cnc(C(=O)N[C@H]2CCCCC/C=C\[C@@H]3C[C@@]3(C(=O)NS(=O)(=O)C3CC3)NC(=O)[C@@H]3C[C@@H](Oc4nc5ccccc5c5ccccc45)CN3C2=O)cn1 : is its Cholesterol-free no less than 0.7?
label 1

Entry NS(=O)(=O)c1cc2c(cc1Cl)N=CNS2(=O)=O [Chlorothiazide] : is its Cholesterol-free no less than 0.7?
label 1
